Data origin: patent US20230286995A1

Test: Pharmacokinetic evaluation of 12k in mice
Assay type: in vivo, NSG mice
Details: female, mouse, plasma; intravenous (4 mg/kg), NSG mice
REPORTED ENDPOINT: AUC (ng·h/mL)

CNc1nc2c(c(N3CC(=O)Nc4cc(OC)ccc43)n1)CCC2 [Compound 12k]	2890

====

Tested on: M14
Experiment: Cytotoxicity assay (MTS, 72 h)
Conditions: Homo sapiens, M14, read-out: IC50 (nM) Melanoma M14
REPORTED ENDPOINT: log10(IC50) (log10 of the value in nM)

COc1ccc2c(c1)NC(=O)CN2c1ncnc2c1CCC2 [Compound 5n]	1.28
CCNc1nc2c(c(N3CC(=O)Nc4cc(OC)ccc43)n1)CCC2 [Compound 5v]	-0.22
CCNc1nc(N2CC(=O)Nc3cc(OC)ccc32)c2cccnc2n1 [Compound 5u]	0.73
COc1ccc2c(c1)NC(=O)CN2c1nc(Cl)nc2c1COC2 [Compound 5p]	1.37
COc1ccc2c(c1)NC(=O)CN2c1cc(C)nc2cccnc12 [Compound 5s]	1.26
COc1ccc2c(c1)NC(=O)CN2c1nc(C)nc2c1CCC2 [Compound 5m]	0.15
COc1ccc2c(c1)NC(=O)CN2c1nc(Cl)nc2c1CCC2 [Compound 5l]	0.77
COc1ccc2c(c1)NC(=O)CN2c1nc(C)nc(C)c1C [Compound 5r]	0.99
COc1ccc2c(c1)NC(=O)CN2c1nc(C)nc2onc(C)c12 [Compound 5k]	0.83
COc1ccc2c(c1)NC(=O)CN2c1nc(Cl)nc2ccoc12 [Compound 5j]	0.75
